Test system: Leishmania donovani
testMethodNotes: Antileishmanial activity against Leishmania donovani intracellular amastigotes infected in mouse J774A1 cells after 48 hrs by luciferase activity-based drug susceptibility assay
Format: functional, organism-based
measurementSetup: J774.A1, 48 h
quantityKind: IC50 (µg/mL)

Examples from the recorded data:
compound: O=[N+]([O-])c1ccc(O[C@H]2CCCC[C@@H]2Cn2ccnc2)c(F)c1
unitAbbreviation: µg/mL
IC50: 0.71
--
compound: O=[N+]([O-])c1ccc(OC2C(n3ccnc3)CCCC2n2ccnc2)c(F)c1 (stereo not given)
unitAbbreviation: µg/mL
IC50: 3.02

(I) FC(F)(F)c1ccc(OC2C(n3ccnc3)CCCC2n2ccnc2)cc1 (stereo not given)
(II) O=[N+]([O-])c1ccc(OC2C(Cn3ccnc3)CCCC2Cn2ccnc2)c(C(F)(F)F)c1 (stereo not given)
(III) O=[N+]([O-])c1ccccc1O[C@H]1CCCC[C@@H]1Cn1ccnc1
Thanks in advance: please rank these 3 entries by IC50, highest to lowest. Quick reminder: the answer is the labels in the order asked.
III, I, II
(III: 6.72 µg/mL, I: 3 µg/mL, II: 0.588 µg/mL)
